# Lookup of reported half-life at 1 µM keyed by entry
test: Half life in mouse liver microsomes at 1 uM after 60 mins; format: ADME, Microsome
MEASURED QUANTITY: half-life at 1 µM

COMPOUND: C[N+]1=C2C=C(NCCc3ccc(O)cc3)C(=O)c3[nH]cc(c32)CC1.O=C([O-])C(F)(F)F [MAKALUVAMINE J TFA SALT]
ENDPOINT RESULT: 42 min

COMPOUND: Cn1cc2c3c1C(=O)C(N/C=C/c1ccc(O)cc1)=CC3=[N+](C)CC2.O=C([O-])C(F)(F)F
ENDPOINT RESULT: 7.4 min

###

# Lookup of reported pIC50 keyed by entry
tested on: XRS6; assay: Cytotoxicity against Chinese hamster Xrs-6 cells; assay type: cell-based; conditions: Cricetulus griseus
pIC50: −log10 of the molar value.

MOLECULE: O=C1C(NCCc2ccc(O)cc2)=CC2=NCCc3c[nH]c1c32
pIC50: 7.10
--
MOLECULE: C[N+]1=C2C=C(N)C(=O)c3[nH]cc(c32)CC1
pIC50: 7.10
--
MOLECULE: Cn1cc2c3c1C(=O)C(N/C=C/c1ccc(O)cc1)=CC3=NCC2
pIC50: 7.10
--
MOLECULE: Cn1cc2ccnc3c2c1C(=O)C(N)=C3
pIC50: 7.10
--
MOLECULE: O=C1C(NC2Cc3cc(Br)c(O)cc3S2)=CC2=NCCc3c[nH]c1c32 (stereo unspecified)
pIC50: 7.10
--
MOLECULE: Cn1cc2c3c1C(=O)C(N)=CC3=NCC2
pIC50: 7.10
